Values from patent US20160355530A1

# Target Entity: HCV NS5B polymerase 1a-H77 (Hepatitis C virus genotype 1a, UniProt P27958)
# Construct: six-histidine tag; made in house; host or cells: E. coli
# Sequence (P27958 2421-2990): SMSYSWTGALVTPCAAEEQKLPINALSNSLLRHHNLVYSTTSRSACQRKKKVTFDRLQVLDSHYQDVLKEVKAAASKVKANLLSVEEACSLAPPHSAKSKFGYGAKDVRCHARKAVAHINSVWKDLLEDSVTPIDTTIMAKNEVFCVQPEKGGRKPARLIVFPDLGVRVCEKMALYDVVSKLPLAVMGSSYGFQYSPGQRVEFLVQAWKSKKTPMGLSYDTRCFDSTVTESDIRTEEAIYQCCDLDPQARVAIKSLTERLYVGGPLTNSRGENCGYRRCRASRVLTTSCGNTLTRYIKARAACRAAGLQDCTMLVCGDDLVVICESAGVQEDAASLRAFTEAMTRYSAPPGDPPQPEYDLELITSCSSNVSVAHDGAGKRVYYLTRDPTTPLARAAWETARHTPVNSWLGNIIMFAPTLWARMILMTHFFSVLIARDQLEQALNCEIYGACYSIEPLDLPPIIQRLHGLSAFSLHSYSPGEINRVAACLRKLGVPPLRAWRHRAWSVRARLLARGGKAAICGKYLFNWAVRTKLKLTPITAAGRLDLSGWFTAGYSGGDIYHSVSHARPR
# Assay Summary: biochemical
# Set-up: species or system HCV genotype 1a
# Setup Conditions: enzyme, strain 1a H77; read-out: HCV Polymerase Strain 1a H77 IC50
# Experimental: Purified HCV NS5B polymerase enzymes were used for polymerase inhibition assays. […] The reaction was initiated by the addition of 20 μM CTP, 20 μM ATP, 0.284 μM (0.5 μCi) of 5,6-[^3H] […] After drying thoroughly in air, 30 μL of Microscint-20 scintillation cocktail (Perkin Elmer) was added to each well, and the retained cpm were determined by scintillation counting. IC50 values were determined by nonlinear regression. […]
Property Label: pIC50
Notebook: values listed as pIC50 are -log10 of the concentration (mol/L).

[in] Which pIC50 is listed for `CS(=O)(=O)N(CCCc1noc(=S)[nH]1)c1cc2oc(-c3ccc(F)cc3)c(C3=NOCCN3)c2cc1C1CC1` ?
[out] 8.22

[in] Which pIC50 is listed for CC1NC(c2c(-c3ccc(F)cc3)oc3cc(N(CCCCO)S(C)(=O)=O)c(C4CC4)cc23)=NO1 (stereo not drawn) ?
[out] 8.23

[in] Which pIC50 is listed for C[S+]([O-])c1ccc(-c2ncc(CN(c3ccc4c(-c5ncc[nH]5)c(-c5ccccc5)oc4c3)S(C)(=O)=O)s2)cc1 (stereo not drawn) ?
[out] 8.16

[in] Which pIC50 is listed for `CS(=O)(=O)NC(=O)CCCN(c1cc2oc(-c3ccc(F)cc3)c(-c3ncc[nH]3)c2cc1C1CC1)S(C)(=O)=O` ?
[out] 8.10

[in] Which pIC50 is listed for `CS(=O)(=O)N(CCCn1cccc1)c1cc2oc(-c3ccc(F)cc3)c(C3=NOCCN3)c2cc1C1CC1` ?
[out] 8.15

[in] Which pIC50 is listed for `COCCCN(c1cc2oc(-c3ccc(F)cc3)c(-c3ncc[nH]3)c2cc1C1CC1)S(C)(=O)=O` ?
[out] 8.19

[in] Which pIC50 is listed for `CS(=O)(=O)CCN(c1cc2oc(-c3ccc(F)cc3)c(-c3ncc[nH]3)c2cc1C1CC1)S(C)(=O)=O` ?
[out] 8.22

[in] Which pIC50 is listed for CS(=O)(=O)N(CCC(O)CO)c1cc2oc(-c3ccc(F)cc3)c(-c3ncc[nH]3)c2cc1C1CC1 (stereo not drawn) ?
[out] 8.19

[in] Which pIC50 is listed for `CS(=O)(=O)N(Cc1cnc(-c2cccc(CO)c2)s1)c1ccc2c(-c3ncc[nH]3)c(-c3ccccc3)oc2c1` ?
[out] 8.23
